# Lookup of reported viability at 28.5 h, 10 µM keyed by entry
# run.description: in vitro
# applied.conditions: human, hela cells, % viability
Use % as the unit, but write only the number.

Worked cases, answers included:
NC(=O)c1ccc(C(=O)OCc2ccc(-c3ccccc3)cc2)cc1 : 95.7
CCn1nnc(C2=CCCN(C)C2)n1 [CBK034628E] : 104
O=C(OCCC1SC(NC2CC3C=CC2C3)=NC1=O)c1cc(C(F)(F)F)ccc1C(F)(F)F (centres unmarked) [CBK200058T] : 88.1
OCCOCCN1CCN(C(S)=Nc2ccccc2)CC1 : 84.7

From here, focus on the item given below.
Task: State the recorded viability at 28.5 h, 10 µM for this entry: "CCCC/C=C/c1cnc2[nH]c(=O)n(CC(C)C)c2n1"
Result: 96.4
